# study.target: Rap guanine nucleotide exchange factor 3 (Homo sapiens) (UniProt O95398)
# Sequence (O95398 whole entry, looked up): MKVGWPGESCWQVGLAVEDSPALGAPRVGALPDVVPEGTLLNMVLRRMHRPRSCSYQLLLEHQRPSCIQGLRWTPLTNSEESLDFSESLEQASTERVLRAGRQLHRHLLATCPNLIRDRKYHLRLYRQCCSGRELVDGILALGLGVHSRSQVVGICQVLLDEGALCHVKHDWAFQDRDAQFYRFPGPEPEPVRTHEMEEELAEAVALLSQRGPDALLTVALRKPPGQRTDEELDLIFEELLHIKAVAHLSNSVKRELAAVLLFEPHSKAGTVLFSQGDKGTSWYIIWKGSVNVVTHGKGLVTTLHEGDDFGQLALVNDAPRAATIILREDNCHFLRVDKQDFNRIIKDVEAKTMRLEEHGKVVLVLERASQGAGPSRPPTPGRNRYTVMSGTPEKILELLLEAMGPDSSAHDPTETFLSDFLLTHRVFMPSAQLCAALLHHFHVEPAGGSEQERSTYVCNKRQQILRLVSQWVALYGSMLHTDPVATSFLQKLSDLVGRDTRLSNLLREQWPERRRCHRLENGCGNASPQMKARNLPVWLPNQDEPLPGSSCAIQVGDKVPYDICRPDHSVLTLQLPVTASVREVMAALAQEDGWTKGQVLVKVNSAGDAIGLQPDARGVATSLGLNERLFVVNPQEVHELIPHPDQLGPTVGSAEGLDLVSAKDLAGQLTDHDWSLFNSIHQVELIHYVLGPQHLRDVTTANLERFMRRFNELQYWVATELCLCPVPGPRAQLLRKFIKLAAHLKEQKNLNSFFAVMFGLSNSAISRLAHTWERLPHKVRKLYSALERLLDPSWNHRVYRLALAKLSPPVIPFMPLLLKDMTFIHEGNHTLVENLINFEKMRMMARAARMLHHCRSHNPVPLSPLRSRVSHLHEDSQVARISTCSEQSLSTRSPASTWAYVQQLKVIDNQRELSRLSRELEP
# experimental.details: Confirmatory qHTS for antagonist of cAMP-regulated guanine nucleotide exchange factor 3 (EPAC1) (AID 1645880); also: nearly all actives have a fitted effect of over 55% in size; also: potency is read from the fitted curve at half-maximal effect
# condition.info: EPAC1 Rap1B-BODIPY-GDP exchange, fluorescence; series mostly up to 115 µM
Results filed as inconclusive are left out. Active and inactive are the calls of the source. Calls follow the shape of the dose curve; as a rule, active = well fitted inhibition curve with a large enough effect; inconclusive = small, poorly fitted or top-dose-only effect; inactive = no such curve, though single readings can be large or run the other way.

| molecule | Potency |
| --- | --- |
| O=C(CCN1C(=O)/C(=C/c2cccs2)SC1=S)Nc1ccc(C(=O)O)c(O)c1 | 79.4 µM (active) |
| CN1C(=O)/C(=C\c2ccc(N(C)C)cc2)OC1=S | inactive |
| Cc1[nH]c2ccccc2c1/C=C/c1ccc2ccccc2n1 | inactive |
| COc1cc(C)cc(C(=O)C=Cc2ccccc2)c1O | inactive |
| COc1cc(Cl)c(C)cc1NC(=O)CSc1cc(Cl)ccc1Cl | 67.5 µM (active) |
| CN(C)S(=O)(=O)c1cccc(-c2nn(-c3ccccc3)cc2/C=C2\SC(=S)NC2=O)c1 | 21.3 µM (active) |
| Cc1ccc(NC(=O)c2ccc(Cl)cc2Cl)c(C(=O)c2ccccc2)c1 | inactive |
| COc1cccc(OC)c1OC(=O)/C=C/c1ccc(C)o1 | inactive |
| O=C(CSc1nnc(SCc2ccccc2)s1)N/N=C/C=C/c1ccco1 | 12.6 µM (active) |
| Cc1ccc(S(=O)(=O)CC(=O)N(CCCN(C)C)c2nc3ccc(C)cc3s2)cc1 | inactive |
| O=C1CSC2(C(=O)N(Cc3ccccc3F)c3ccccc32)N1c1ccc(F)cc1 (configuration not stated) | inactive |
| Oc1ccc(NCc2ccccc2OCc2ccccc2)cc1 | inactive |
| O=C1CCN(Cc2ccccc2)CCN1[C@H](COc1ccccc1)Cc1ccccc1 | inactive |
| COc1ccc(C(=O)N(Cc2ccccc2)c2cccc(C)c2)c(OC)c1OC | inactive |
| Cc1ccc(-n2nc3c(=O)n(CCCC(=O)NCc4ccccc4C)nc(C)c3c2C)cc1 | inactive |
| Cc1ccccc1C(=O)NCC(=O)N1CCN(c2ccccn2)CC1 | inactive |
| CCC(Oc1ccccc1)C(=O)Nc1cc(Cl)ccc1-n1cncn1 (configuration not stated) | inactive |
| CCOc1c(Cl)cc(Cl)cc1CNCCSc1nnnn1C | inactive |
| COc1cc(OC)c(CNC2CCCCCC2)cc1Br | inactive |
| CC(C)C1CC2=C(C(=O)OC(C)(C)O2)C(c2ccc(F)cc2)O1 (configuration not stated) | inactive |
| CCCCN1C(=O)C(CC(=O)NC2CCCCC2)CC(C(=O)N2CCCCCC2)=C1C (configuration not stated) | inactive |
| CCc1nc2ccc(C(=O)N(C)Cc3ccccc3)cn2c1N(CC)Cc1cccc(Br)c1 | inactive |

###

# key: entry, value: activity change, negative = inhibition
# experimental.details: qHTS Assay for Lipid Storage Modulators (AID 1519); also: % is scaled to controls: 0 for no effect and ±100 for the full control effect
# condition.info: Drosophila S3 cells, BODIPY lipid droplet/cell ratio, laser cytometry; at 57.5 µM (top of the series); cells loaded with oleic acid
Results filed as inconclusive are left out.

| molecule | quantity.unit | activity change, negative = inhibition |
| --- | --- | --- |
| Nc1nc2nc(Cl)[nH]c2c(=O)[nH]1 | % | 6.34 |
| CCCCN1CCCCC1C(=O)Nc1c(C)cccc1C (stereo not given) | % | 7.02 |
| C[C@H]1C[C@]2(O[C@@H]2C)C(=O)O[C@@H]2CCN(C)C/C=C(/COC(=O)[C@]1(C)O)C2=O | % | -0.98 |
| CCOC(=O)C(=O)C1(C(=O)OCC)Oc2cc(OC)cc(OC)c2C(=O)C1c1ccccc1 (stereo not given) | % | 5.57 |
| O=C(/C=C/c1ccc(O)c(O)c1)O[C@H]1C[C@@](O)(C(=O)O)CC(O)C1O (stereo not given in full) | % | 12.5 |
